Molecular target: PKC-ε (Homo sapiens, UniProt Q02156)
Sequence (Q02156 whole entry): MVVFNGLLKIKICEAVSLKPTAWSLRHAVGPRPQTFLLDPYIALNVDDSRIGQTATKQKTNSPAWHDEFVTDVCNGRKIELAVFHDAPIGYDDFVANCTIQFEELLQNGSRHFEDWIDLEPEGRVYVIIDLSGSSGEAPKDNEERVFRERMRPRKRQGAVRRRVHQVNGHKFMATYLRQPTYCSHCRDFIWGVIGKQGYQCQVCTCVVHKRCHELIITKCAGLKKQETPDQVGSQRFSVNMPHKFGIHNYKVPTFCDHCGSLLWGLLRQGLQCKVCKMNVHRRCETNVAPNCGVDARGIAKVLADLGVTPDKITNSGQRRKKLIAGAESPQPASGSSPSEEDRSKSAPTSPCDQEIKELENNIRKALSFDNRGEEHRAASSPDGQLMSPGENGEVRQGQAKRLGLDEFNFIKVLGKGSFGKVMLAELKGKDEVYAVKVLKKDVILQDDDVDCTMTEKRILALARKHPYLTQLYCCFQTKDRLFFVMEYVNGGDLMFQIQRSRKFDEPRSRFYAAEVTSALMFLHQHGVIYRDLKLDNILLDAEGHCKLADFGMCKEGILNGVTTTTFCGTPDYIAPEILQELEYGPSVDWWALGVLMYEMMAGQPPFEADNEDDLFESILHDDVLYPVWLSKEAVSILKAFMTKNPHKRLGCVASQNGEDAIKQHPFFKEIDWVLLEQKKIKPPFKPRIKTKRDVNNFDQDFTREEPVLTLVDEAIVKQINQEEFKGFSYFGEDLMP
Test: Activation of purified PKC isozymes, radiometric: PKC-ε
Format: biochemical
Readout kind: PKC-ε activation at peak

Reported PKC-ε activation at peak ( CCCCCCCCC1CC1CCCCCCCCOC(=O)CCCCCCCC1CC1CC1CC1CCCCC (stereo not shown) ) = 140 % of control

----------
Tested on: phosphatidylserine (C2) binding site
Assay: 3H-DCPLA-ME binding to rat brain slices with competitors, film autoradiography
Conditions: 1 μM competitor
Reported values of 3H-DCPLA-ME binding, 1 μM competitor for individual entries
Just the number in %, nothing appended.

Measured 3H-DCPLA-ME binding, 1 μM competitor (phosphatidylserine (C2) binding site), entry `CCCC(=O)O[C@@H]1[C@@H](C)[C@@]2(O)[C@@H](C=C(CO)C[C@]3(O)C(=O)C(C)=C[C@@H]23)[C@@H]2C(C)(C)[C@]12OC(=O)CCC` : 81

Measured 3H-DCPLA-ME binding, 1 μM competitor (phosphatidylserine (C2) binding site), entry CCCCCC1CC1CC1CC1CCCCCCCC(=O)OC (stereo not shown) : 37

Measured 3H-DCPLA-ME binding, 1 μM competitor (phosphatidylserine (C2) binding site), entry `CCC/C=C/C=C/C(=O)O[C@H]1/C(=C/C(=O)OC)C[C@H]2C[C@H]([C@@H](C)O)OC(=O)C[C@H](O)C[C@@H]3C[C@H](OC(C)=O)C(C)(C)C(O)(C[C@@H]4C/C(=C/C(=O)OC)C[C@H](/C=C/C(C)(C)[C@]1(O)O2)O4)O3` : 77

Measured 3H-DCPLA-ME binding, 1 μM competitor (phosphatidylserine (C2) binding site), entry CCCCCC1CC1CC1CC1CCCCCCCC(=O)O (stereo not shown) : 35
